# zone of inhibition at 100 µg/mL values compiled below
Test system: Pseudomonas aeruginosa
assay_summary: Antibacterial activity against Pseudomonas aeruginosa at 100 ug/ml by cup-plate method
Format: functional
test_settings: read-out: IZ
Express it in mm; write the number only.

Recorded results for 3 compounds are shown here.
Cc1ccccc1NC(=O)c1cn(CCO)c2c(cc(Cl)c3ncccc32)c1=O :: 4
Cc1ccc(NC(=O)c2cn(CCO)c3c(cc(O)c4ncccc43)c2=O)cc1 :: 9
O=C(Nc1ccc(S(=O)(=O)Nc2ccc([N+](=O)[O-])cc2)cc1)c1cn(CCO)c2c(cc(O)c3ncccc32)c1=O :: 10

Field zone of inhibition at 100 µg/mL (entry O=C(Nc1ccc(S(=O)(=O)Nc2cccc([N+](=O)[O-])c2)cc1)c1cn(CCO)c2c(cc(Cl)c3ncccc32)c1=O ) reads 5

###

Measured zone of inhibition at 100 µg/mL accompanies every entry in the list below.
System: Bacillus subtilis
assay_summary: Antibacterial activity against Bacillus subtilis at 100 ug/ml by cup plate method
Assay type: functional
test_settings: read-out: IZ
Give the value, in units of mm, as a plain number.

O=C(NC(=S)Nc1ccccc1[N+](=O)[O-])c1cn(CCO)c2c(cc(Cl)c3ncccc32)c1=O :: 9
Cc1ccc(C)c(NS(=O)(=O)c2ccc(NC(=O)c3cn(CCO)c4c(cc(O)c5ncccc54)c3=O)cc2)c1 :: 9
O=C(Nc1cccc([N+](=O)[O-])c1)c1cn(CCO)c2c(cc(O)c3ncccc32)c1=O :: 8

Next compound, zone of inhibition at 100 µg/mL to be filled in.
Record COc1ccccc1NC(=S)NC(=O)c1cn(CCO)c2c(cc(Cl)c3ncccc32)c1=O . Reported zone of inhibition at 100 µg/mL: 6

###

Test system: Pseudomonas aeruginosa
assay_summary: Antibacterial activity against Pseudomonas aeruginosa at 100 ug/ml by cup-plate method
Format: functional
test_settings: read-out: IZ
Entries and their zone of inhibition at 100 µg/mL values follow.
Report as a plain number; the unit mm is understood.

Answered examples (4):
O=C(Nc1ccc(S(=O)(=O)Nc2ccccc2)cc1)c1cn(CCO)c2c(cc(Cl)c3ncccc32)c1=O :: 7
COc1ccccc1NC(=O)c1cn(CCO)c2c(cc(Cl)c3ncccc32)c1=O :: 8
Cc1ccc(NC(=S)NC(=O)c2cn(CCO)c3c(cc(O)c4ncccc43)c2=O)cc1 :: 4
O=C(NC(=S)Nc1cccc(O)c1)c1cn(CCO)c2c(cc(O)c3ncccc32)c1=O :: 7

The compound COc1ccccc1NC(=S)NC(=O)c1cn(CCO)c2c(cc(O)c3ncccc32)c1=O , when measured on Pseudomonas aeruginosa, yielded zone of inhibition at 100 µg/mL of 4

###

The reader will find reported zone of inhibition at 100 µg/mL values listed item by item below.
Test system: Bacillus subtilis
assay_summary: Antibacterial activity against Bacillus subtilis at 100 ug/ml by cup plate method
Assay type: functional
test_settings: read-out: IZ
Number in mm, nothing else.

O=C(Nc1cccc([N+](=O)[O-])c1)c1cn(CCO)c2c(cc(Cl)c3ncccc32)c1=O :: 6
Cc1ccc(C)c(NC(=O)c2cn(CCO)c3c(cc(O)c4ncccc43)c2=O)c1 :: 9

Okay, now this compound:
Query COc1ccccc1NC(=S)NC(=O)c1cn(CCO)c2c(cc(O)c3ncccc32)c1=O yields zone of inhibition at 100 µg/mL of 0
